Across several studies, compounds have been characterized by their pIC50 on UniProt:Q92731; a selection follows.
pIC50 field: float, defined as -log10 of concentration (mol/L).

Which pIC50 is reported with UniProt:Q92731 for this entry: `CCN(CC)CCOc1ccc([C@@H]2Oc3ccccc3C3=C2c2ccc(O)cc2OCC3)cc1` ?
7.55

Lookup: pIC50 / UniProt:Q92731 / CCC1Oc2cc(O)cc(O)c2N=C1c1ccc(O)cc1 (stereo not given)
6.92

Could you share what pIC50 was measured for `CC(C)N(CCOc1ccc([C@@H]2Oc3cc(O)ccc3C3=C2c2ccc(O)cc2OCC3)cc1)C(C)C` , tested on UniProt:Q92731?
7.73

Reported pIC50 for UniProt:Q92731, given `OCCC1CCN(CCOc2ccc([C@@H]3Oc4ccc(O)cc4S[C@@H]3c3ccc(O)cc3)cc2)CC1` ?
5.95

Test system UniProt:Q92731; read-out pIC50; what value for `C/C=C\c1cc(O)cc2nc(-c3ccc(O)cc3F)oc12` ?
7.64

Lab note: need pIC50 for `C[C@@]12CCC(=O)C(C(F)(F)F)=C1c1ccc3[nH]ncc3c1C2` on UniProt:Q92731, anyone have it?
8.10

Form entry - test system: UniProt:Q92731; read-out: pIC50; compound: `COc1ccc2c(c1)O[C@@H](c1ccc(OCCN3CCCCC3)cc1)C1=C2CCOc2cc(O)ccc21`
7.20

Checklist item: pIC50 tested on UniProt:Q92731, entry `O=C(c1ccc(N2CCN(C(=O)c3ccccc3[N+](=O)[O-])CC2)cc1)c1c(-c2ccc(O)cc2)sc2cc(O)ccc12` , value?
7.89

Any idea what pIC50 came out for `CC[C@@]12C[C@H](O)[C@](O)(c3ccccc3)C[C@H]1CCc1cc(O)ccc12` on UniProt:Q92731?
6.18

// fetch UniProt:Q92731 pIC50 for `CSC1=C(c2ccc(O)cc2)C(=O)c2ccc(O)cc21`
8.89

# get_value(readout= pIC50, system= UniProt:Q92731) for `O=C1c2ccccc2O[C@H](c2ccc(OCCN3CCCCC3)cc2)[C@@H]1c1ccc(O)cc1`
6.29

Request - read-out pIC50 | tested on UniProt:Q92731 | compound `Oc1ccc([C@H]2Sc3cc(O)ccc3O[C@H]2c2ccc(OCCN3CC[C@@H](O)C3)cc2)cc1`
7.09

Value wanted: pIC50 (UniProt:Q92731) of entry `O=C1c2ccc(O)cc2O[C@H](c2ccc(OCCN3CCCCC3)cc2)[C@H]1c1ccc(O)cc1`
5.71

State its pIC50 on UniProt:Q92731: `CCCc1c(O)cc(O)c2c1O[C@H](c1ccc(O)cc1)CC2=O`
7.54

API: value(readout=pIC50, system=UniProt:Q92731) for record `CC[C@@]12CCC(=O)C(Cl)=C1c1ccc3[nH]ncc3c1C2`
8.11

====

Compiled literature log10 of IC50, tested on UniProtKB Q92731.
Give log10 of IC50, with IC50 taken in nM.

Example entries and their recorded answers appear below.
compound="CCCC12CCC(=O)C(CC)=C1c1ccc3[nH]nnc3c1C2 (stereo unspecified)" measurement_type="log10 of IC50" reported_measurement=1.26
compound="CC1Oc2cc(O)ccc2N=C1c1ccc(O)cc1 (stereo unspecified)" measurement_type="log10 of IC50" reported_measurement=2.52
compound=Oc1ccc([C@H]2Sc3cc(O)ccc3O[C@H]2c2ccc(OCCN3C4CCC3CC4)cc2)cc1 measurement_type="log10 of IC50" reported_measurement=2.07
compound=CC[C@@]12CCC(=O)C(C(F)(F)F)=C1c1ccc3nn[nH]c3c1C2 measurement_type="log10 of IC50" reported_measurement=1.04
compound=CS(=O)(=O)c1ccc(C(CCCO)=C(c2ccccc2)c2ccccc2)cc1 measurement_type="log10 of IC50" reported_measurement=3.18

Item: `CCn1c(CCCc2ccc(-c3ccc(NS(=O)(=O)c4ccccc4)cn3)cc2)nn(Cc2ccc(C(C)(C)C)cc2)c1=O` Test system: UniProtKB Q92731 Read-out: log10 of IC50 Value: ?
4.18

UniProtKB Q92731 / log10 of IC50 / `Oc1ccc2c(c1)OCCC1=C2[C@@H](c2ccc(OCCN3CCCCC3)cc2)Oc2ccccc21` : value?
2.00

Give the reported log10 of IC50 for `Oc1ccc2c(c1)sc1c3ccccc3n(Cc3ccc(OCCN4CCCCC4)cc3)c21` (system: UniProtKB Q92731).
1.54

Checklist item: log10 of IC50 tested on UniProtKB Q92731, entry `Oc1ccc2c(c1)O[C@@H](c1ccc(OCCN3CCCCC3)cc1)C1=C2CCOc2cc(O)ccc21` , value?
1.20

Missing value: log10 of IC50, UniProtKB Q92731, entry `Nc1ccc(-c2ccc(O)cc2)cc1Cl` . Fill in?
3.46

Given the entry `Oc1ccc2c(c1)sc1c3cc(O)ccc3n(Cc3ccc(OCCN4CCCCC4)cc3)c21` , what log10 of IC50 was observed with UniProtKB Q92731?
1.04

Item: `Cc1cc(O)c2cccc(-c3nc4ccc(O)cc4o3)c2c1` Test system: UniProtKB Q92731 Read-out: log10 of IC50 Value: ?
0.78

Query log10 of IC50 on UniProtKB Q92731 for `Oc1ccc(C2=Cc3cc(O)ccc3C23Cc2ccccc2C3)cc1`
0.32

Look up log10 of IC50 with UniProtKB Q92731 for this compound: `CCCC[C@@]12CCC(=O)C(CC)=C1c1ccc3[nH]ncc3c1C2`
0.04

Hi! What's the reported log10 of IC50 for `Oc1ccc2c(c1)OCCC1=C2[C@H](c2ccc(OCCN3CCCCCC3)cc2)Oc2ccccc21` on UniProtKB Q92731?
1.34

Give the reported log10 of IC50 for `COc1ccc2c(c1)O[C@H](c1ccc(OCCN3CCCCC3)cc1)C1=C2CCOc2cc(O)ccc21` (system: UniProtKB Q92731).
0.85

Please state recorded log10 of IC50 (tested on UniProtKB Q92731) of `Cc1c(O)cc(C#N)c2cc(-c3ccc(O)c(F)c3)ccc12`
0.78

// map O=C1CCC2(Cc3ccccc3)Cc3cc(O)ccc3C2=C1c1ccc(O)cc1 (stereo unspecified) to recorded log10 of IC50 (system: UniProtKB Q92731)
2.00

Enter reported log10 of IC50 observed with UniProtKB Q92731 for `Oc1ccc2c(c1)sc1c3ccccc3n(Cc3ccc(OCCN4CCCCCC4)cc3)c21`
1.22

Record lookup: for UniProtKB Q92731, what log10 of IC50 belongs to `Oc1cccc(C2=Cc3cc(O)ccc3C23Cc2ccccc2C3)c1` ?
1.45

For the record `CC(C)(C)[C@H]1Sc2cc(O)ccc2O[C@H]1c1ccc(OCCN2CCCCC2)cc1` , what value of log10 of IC50 is listed for UniProtKB Q92731?
1.63

Test system UniProtKB Q92731; read-out log10 of IC50; what value for `COc1ccccc1[C@H](c1cccc2ccccc12)[C@@](C)(C#N)C(=O)N1CCC(c2cccc(C(F)(F)F)c2)CC1` ?
3.18

// map `Oc1ccc(C2=Nc3c(O)cc(O)cc3OC2)cc1` to recorded log10 of IC50 (system: UniProtKB Q92731)
3.45

Query the reported log10 of IC50 for UniProtKB Q92731; item: `Nc1ccc(-c2c(C(=O)c3ccc(OCCN4CC(C(=O)O)=CCC4=O)cc3)c3ccc(O)cc3[nH]c2=O)cc1`
1.86

Request body: readout log10 of IC50, system UniProtKB Q92731, query CC1=C2c3ccc4[nH]ncc4c3CC2(C)CCC1=O (racemic) . Return the value.
1.84

For the record `Oc1ccc(-c2[nH]c(C(F)(F)F)nc2-c2ccccc2)cc1` , what value of log10 of IC50 is listed for UniProtKB Q92731?
1.18

====

System: Estrogen receptor beta (Homo sapiens) | Read-out: log10 IC50 | Origin: multiple publications
Sequence (Q92731 whole entry): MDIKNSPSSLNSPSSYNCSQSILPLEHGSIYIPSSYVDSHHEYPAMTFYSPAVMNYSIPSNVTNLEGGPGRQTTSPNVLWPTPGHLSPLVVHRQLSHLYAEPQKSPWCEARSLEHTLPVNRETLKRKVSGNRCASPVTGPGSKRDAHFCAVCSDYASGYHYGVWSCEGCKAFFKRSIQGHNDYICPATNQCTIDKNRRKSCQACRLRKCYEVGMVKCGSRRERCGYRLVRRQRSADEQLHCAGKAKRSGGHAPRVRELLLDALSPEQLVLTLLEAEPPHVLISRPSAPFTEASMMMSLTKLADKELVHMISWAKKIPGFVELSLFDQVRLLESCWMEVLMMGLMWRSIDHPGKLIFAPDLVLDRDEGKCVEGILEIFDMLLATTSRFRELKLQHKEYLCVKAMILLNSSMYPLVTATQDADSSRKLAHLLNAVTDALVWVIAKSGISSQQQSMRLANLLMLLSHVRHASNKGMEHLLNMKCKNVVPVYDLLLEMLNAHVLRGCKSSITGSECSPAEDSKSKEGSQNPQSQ
Heads up: the numbers are on a log10 scale; they represent IC50 in nM.

// below: answered compounds
compound=Cc1nocc1-c1nc2ccccc2n1-c1ccc(O)cc1 measurement_type="log10 IC50" reported_measurement=1.16
compound=OC[C@@H]1CCCN1CCOc1ccc([C@@H]2Oc3ccc(O)cc3S[C@@H]2c2ccc(O)cc2)cc1 measurement_type="log10 IC50" reported_measurement=1.91

Using the record for `Oc1cccc([C@H]2Sc3cc(O)ccc3O[C@H]2c2ccc(OCCN3CCCC3)cc2)c1` , report its log10 IC50.
1.58

For the compound CCCC12CCC(=O)C(C)=C1c1ccc3nn[nH]c3c1C2 (stereo not given) , what log10 IC50 is on record?
1.91

What does the data say about its log10 IC50? Entry: C[C@]12CC[C@@H]3c4ccc(O)cc4C[C@@H](CCCCc4cn(CC5COc6ccccc6O5)nn4)[C@H]3[C@@H]1CC[C@@H]2O (stereo not given in full)
1.61

May I ask what log10 IC50 has been recorded for `CCC1=C2c3ccc4[nH]nnc4c3C[C@]2(CC)CCC1=O` ?
0.76

Sample O=C1CCC2(Cc3ccccc3)Cc3cc(O)ccc3C2=C1c1ccc(OCCN2CCCCC2)cc1 (stereo not given) — what was its log10 IC50?
2.26

Given the compound `COc1c(Br)c(O)c(Br)c2nc(-c3ccc(O)c(F)c3)oc12` , what is its reported log10 IC50?
1.81

Name the reported log10 IC50 value associated with the compound CCC12CCC(=O)C(Br)=C1c1ccc3nn[nH]c3c1C2 (stereo not given)
1.78
